B1: library; numbered along this chain (parent)
chain: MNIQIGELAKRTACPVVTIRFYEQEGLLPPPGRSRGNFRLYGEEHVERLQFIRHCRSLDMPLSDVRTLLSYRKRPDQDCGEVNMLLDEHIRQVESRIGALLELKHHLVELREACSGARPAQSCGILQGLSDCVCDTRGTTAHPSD

Variants of: B1
method: sfGFP reporter fluorescence (15 h) (µM FITC); higher = stronger transcriptional activation
condition_info: library round: Round 0; ligand: 30 µM Zn
outcome_measure: sfGFP reporter fluorescence

INSERT INTO measurements (variant_annotation, measured_result) VALUES
  ('I90T', 0.595),
  ('M60L K104V G128I', 3.28),
  ('R33D', 0.0652),
  ('R39L', 0.055),
  ('D64K K104V L107C G128I', 3.35),
  ('G128I', 1.68),
  ('L28C', 0.14),
  ('C134M', 1.28),
  ('E109H', 0.456),
  ('E109K', 2.2),
  ('C55P', 0.0585),
  ('C114S', 0.0544),
  ('E112T', 0.857),
  ('D135E', 0.648),
  ('C123I', 0.0517),
  ('E7R', 1.25),
  ('H89E', 0.139),
  ('C79R', 0.059),
  ('L58Q', 0.0711),
  ('L126R', 0.0572),
  ('V46M', 1),
  ('D64K L107C', 4.11),
  ('L110D', 0.0574),
  ('E7F', 0.133),
  ('C55E', 0.0607),
  ('P61N D64K K104V L107C', 2.74),
  ('D131E', 0.657),
  ('C123L', 0.0542),
  ('L126H', 0.0552),
  ('L27H', 0.0762),
  ('L28F', 0.599),
  ('F21D', 0.0599),
  ('P30R', 1.15),
  ('V16T', 1.14),
  ('E94V', 0.739),
  ('P15S', 0.802),
  ('D131G', 0.604),
  ('R111P', 0.0542),
  ('C114M', 0.0616),
  ('V108Y', 1.18),
  ('L62V', 0.396),
  ('D135N', 1.18),
  ('E109D', 0.674),
  ('K104T', 0.865),
  ('G98A', 0.793),
  ('E43M', 1.33);
